- Measured Target: T1, Human Serum Albumin (human, UniProt P02768 25-609)
- T1 construct: also called HSA; antigen
- T1 sequence (P02768 25-609 limits assumed): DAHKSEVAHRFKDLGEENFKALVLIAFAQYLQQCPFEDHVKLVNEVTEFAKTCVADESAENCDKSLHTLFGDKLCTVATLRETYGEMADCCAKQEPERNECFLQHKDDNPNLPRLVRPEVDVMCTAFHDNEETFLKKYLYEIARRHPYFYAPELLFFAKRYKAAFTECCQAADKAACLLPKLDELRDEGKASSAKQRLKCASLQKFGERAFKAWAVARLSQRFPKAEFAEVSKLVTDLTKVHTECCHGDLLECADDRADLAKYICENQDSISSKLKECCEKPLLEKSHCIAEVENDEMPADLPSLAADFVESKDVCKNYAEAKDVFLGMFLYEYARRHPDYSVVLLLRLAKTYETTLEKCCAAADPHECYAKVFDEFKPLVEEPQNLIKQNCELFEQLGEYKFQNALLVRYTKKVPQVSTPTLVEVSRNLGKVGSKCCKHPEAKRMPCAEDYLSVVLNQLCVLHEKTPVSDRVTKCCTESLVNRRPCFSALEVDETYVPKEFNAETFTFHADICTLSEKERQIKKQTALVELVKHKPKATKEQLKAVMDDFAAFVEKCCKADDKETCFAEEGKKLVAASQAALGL
- Test Name: SPR (Biacore 2000), purified dAb over HSA (559 RU) on CM5 chip
Would you kindly list kon for each of these binders?
The answer is to be given in M⁻¹ s⁻¹; state only the numeric part.

Write down kon measured for item DOM7h-11-15 A43D (other, name in Kabat numbering, also called A43D mutant of DOM7h-11-15) VL: DIQMTQSPSSLSASVGDRVTITCRASRPIGTMLSWYQQKPGKDPKLLILAFSRLQSGVPSRFSGSGSGTDFTLTISSLQPEDFATYYCAQAGTHPTTFGQGTKVEIKR
664

Write down kon measured for item DOM7h-14-10 A43I (other, name in Kabat numbering, also called A43I mutant of DOM7h-14-10) VL: DIQMTQSPSSLSASVGDRVTITCRASQWIGSQLSWYQQKPGKIPKLLIMWRSSLQSGVPSRFSGSGSGTDFTLTISSLQPEDFATYYCAQGLRHPKTFGQGTKVEIKR
890000

Write down kon measured for item DOM7h-11-15 A43I (other, name in Kabat numbering, also called DOM7h-11-15 A43I mutant) VL: DIQMTQSPSSLSASVGDRVTITCRASRPIGTMLSWYQQKPGKIPKLLILAFSRLQSGVPSRFSGSGSGTDFTLTISSLQPEDFATYYCAQAGTHPTTFGQGTKVEIKR
770000

Write down kon measured for item DOM7h-14-10 (other, also called DOM7h-14-10 parent) VL: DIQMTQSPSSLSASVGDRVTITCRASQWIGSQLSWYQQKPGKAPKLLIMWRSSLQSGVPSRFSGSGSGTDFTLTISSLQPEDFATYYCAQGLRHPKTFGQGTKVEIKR
670000

Write down kon measured for item DOM7h-11-15 (other, also called DOM7h-11-15 parent) VL: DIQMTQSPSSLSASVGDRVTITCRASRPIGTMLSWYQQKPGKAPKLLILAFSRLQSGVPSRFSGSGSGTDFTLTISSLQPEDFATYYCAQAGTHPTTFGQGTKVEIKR
12000

Write down kon measured for item DOM7h-14-10 A43D (other, name in Kabat numbering, also called A43D mutant of DOM7h-14-10) VL: DIQMTQSPSSLSASVGDRVTITCRASQWIGSQLSWYQQKPGKDPKLLIMWRSSLQSGVPSRFSGSGSGTDFTLTISSLQPEDFATYYCAQGLRHPKTFGQGTKVEIKR
990000
